Target: 44 GPCR and other molecular targets
Experiment: PDSP binding assay panel of 44 GPCR and other molecular targets
Settings: read-out: Ki values for 11 non-opioid targets; weak binding affinity, PDSP panel
property_name: Ki

{"columns": ["structure_string", "reported_value"],
 "data": [
  ["Clc1ccc(CSc2nnc(-c3ccccn3)n2Cc2ccco2)cc1Cl", "1 to 10 µM"]
]}

---

Listed here are molecules together with their documented bound to both human and mouse plasma.
Assay: Plasma protein binding, human
Type: in vitro ADME
Settings: human and mouse plasma together

{"columns": ["molecule", "bound to both human and mouse plasma"],
 "data": [
  ["COc1ccc(N2CCN(CCCNC(=O)Cn3c(=O)c4cccn4c4c(C)ccnc43)CC2)cc1 [4{13}]", "80–94%"],
  ["O=C(c1ccccn1)N(Cc1cccs1)C1(C(=O)NC2CCCCC2)CCCCC1 [1{1}]", "90–99%"],
  ["Clc1ccc(CSc2nnc(-c3ccccn3)n2Cc2ccco2)cc1Cl [2{8}]", "90–99%"],
  ["Cc1ccc(S(=O)(=O)NCc2ccc(C(=O)NCCN(Cc3ccccc3)C(C)C)cc2)cc1 [3{1}]", "90–99%"]
]}
